Reference for the values: the NIST ThermoML archive (doi:10.1016/j.fluid.2018.09.024)

# PROCEDURE SUMMARY: activity coefficient (dimensionless); of the first substance listed, at infinite dilution; xn = mol fraction of the nth substance listed
# MEASUREMENT PARAMETERS: 378.15 K; 101.33 kPa; Liquid; Chromatography; x1 = 0
Each record is given yes if its reported activity coefficient is strictly below 1. Records at or above 1 are given no.

CC(C)c1ccccc1 [isopropylbenzene] + CCCCCCCCCCCC[N+](C)(C)CCOc1ccccc1.N#C[N-]C#N : no
CCCCO [butan-1-ol] + CCCCCCCCCCCC[N+](C)(C)CCOc1ccccc1.N#C[N-]C#N : yes
CCC(=O)CC [pentan-3-one] + CCCCCCCCCCCC[N+](C)(C)CCOc1ccccc1.N#C[N-]C#N : no

# input for lookup
[in] Say whether its activity coefficient is strictly beneath 1. Entry: C=Cc1ccccc1 [styrene] + CCCCCCCCCCCC[N+](C)(C)CCOc1ccccc1.N#C[N-]C#N
[out] no

* * *

# PROCEDURE SUMMARY: activity coefficient (dimensionless); of the first substance listed, at infinite dilution; xn = mol fraction of the nth substance listed
# MEASUREMENT PARAMETERS: 358.15 K; 101.33 kPa; Liquid; Chromatography; x1 = 0
QUANTITY KIND: activity coefficient
Please state the value as a number alone, without comment.

C1COCCO1 [1,4-dioxane] + CCCCCCCCCCCC[N+](C)(C)CCOc1ccccc1.N#C[N-]C#N : 0.846

Recorded result, C=CCCCCC [1-heptene] + CCCCCCCCCCCC[N+](C)(C)CCOc1ccccc1.N#C[N-]C#N , activity coefficient: 4.43

Recorded result, CC1CCCCC1 [methylcyclohexane] + CCCCCCCCCCCC[N+](C)(C)CCOc1ccccc1.N#C[N-]C#N , activity coefficient: 3.85

Recorded result, CCCOCCC [dipropyl ether] + CCCCCCCCCCCC[N+](C)(C)CCOc1ccccc1.O=S(=O)([N-]S(=O)(=O)C(F)(F)F)C(F)(F)F , activity coefficient: 2.06

Recorded result, CCCCCCCC [octane] + CCCCCCCCCCCC[N+](C)(C)CCOc1ccccc1.O=S(=O)([N-]S(=O)(=O)C(F)(F)F)C(F)(F)F , activity coefficient: 4.41

Recorded result, O [water] + CCCCCCCCCCCC[N+](C)(C)CCOc1ccccc1.N#C[N-]C#N , activity coefficient: 0.5

Recorded result, CCC(C)O (stereo not drawn) [butan-2-ol] + CCCCCCCCCCCC[N+](C)(C)CCOc1ccccc1.N#C[N-]C#N , activity coefficient: 0.536

Recorded result, c1ccsc1 [thiophene] + CCCCCCCCCCCC[N+](C)(C)CCOc1ccccc1.O=S(=O)([N-]S(=O)(=O)C(F)(F)F)C(F)(F)F , activity coefficient: 0.649

* * *

# PROCEDURE SUMMARY: activity coefficient (dimensionless); of the first substance listed, at infinite dilution; xn = mol fraction of the nth substance listed
# MEASUREMENT PARAMETERS: 348.15 K; 101.33 kPa; Liquid; Chromatography; x1 = 0
QUANTITY KIND: activity coefficient
Please state the value as a number alone, without comment.

Reference set, count: 3
CCCOCCC [dipropyl ether] + CCCCCCCCCCCC[N+](C)(C)CCOc1ccccc1.O=S(=O)([N-]S(=O)(=O)C(F)(F)F)C(F)(F)F : 1.99
CCC(C)(C)OC [2-methoxy-2-methylbutane] + CCCCCCCCCCCC[N+](C)(C)CCOc1ccccc1.N#C[N-]C#N : 2.63
c1ccccc1 [benzene] + CCCCCCCCCCCC[N+](C)(C)CCOc1ccccc1.N#C[N-]C#N : 0.905

Would you kindly look at the next entry?
Recorded result, C=CCCCCCC [oct-1-ene] + CCCCCCCCCCCC[N+](C)(C)CCOc1ccccc1.N#C[N-]C#N , activity coefficient: 5.09
